Biological target: human glucagon receptor (Homo sapiens (Human), UniProt P47871)
Sequence (P47871 26-477): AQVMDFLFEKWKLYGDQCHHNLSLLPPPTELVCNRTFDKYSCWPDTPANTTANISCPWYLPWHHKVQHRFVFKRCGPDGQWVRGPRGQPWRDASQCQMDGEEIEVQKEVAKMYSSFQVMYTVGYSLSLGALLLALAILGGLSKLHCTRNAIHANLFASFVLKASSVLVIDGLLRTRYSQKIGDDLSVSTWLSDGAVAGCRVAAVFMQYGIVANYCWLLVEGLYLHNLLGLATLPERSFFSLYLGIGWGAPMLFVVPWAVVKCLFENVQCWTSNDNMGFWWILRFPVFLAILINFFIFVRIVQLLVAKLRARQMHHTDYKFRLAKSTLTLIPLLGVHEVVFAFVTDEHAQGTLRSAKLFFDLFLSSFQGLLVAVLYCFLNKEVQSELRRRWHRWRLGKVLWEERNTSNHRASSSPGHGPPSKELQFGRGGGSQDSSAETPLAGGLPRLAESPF
Experiment: Human Glucagon SPA Assay
Conditions: membrane from chem-1 cells stably transfected with the human glucagon receptor; 125 pM [125I]Glucagon-Cex; Ki by Cheng-Prusoff equation; read-out: Binding Ki
Method: The Glucagon SPA assay is used to determine the ability of test compounds to block the binding of glucagon-cex to the glucagon receptor. Test compounds are re-suspended and serially diluted in 100% DMSO. […] Following a 6-10 hr incubation at room temperature the amount of hot ligand bound to the cell membranes is determined by reading the plates on a Wallac Trilux radioactive emission detector. Data is analyzed using Pfizer's Data analysis program. […] Ki values are calculated using Cheng-Prusoff equation.
READOUT_LABEL: Ki (nM)

>>> meas_value("Cc1nc2ccccc2nc1NC(CC(C)C)c1ccc(C(=O)NCCC(=O)O)cc1 (racemic)")
979
>>> meas_value("Cc1cc2cc(F)ccc2nc1NC(c1ccc(C(=O)NCCC(=O)O)cc1)C1CC(C)(C)C1 (racemic) [Example 20]")
39
>>> meas_value("CC(C)CC(Nc1ccc2cccc(Cl)c2n1)c1ccc(C(=O)NCCC(=O)O)cc1 (racemic)")
199

(P) Cc1cc(NC(CC(C)C)c2ccc(C(=O)NCCC(=O)O)cc2)nc2cc(F)ccc12 (racemic)
(Q) Cc1c(NC(CC(C)C)c2ccc(C(=O)NCCC(=O)O)cc2)cnc2ccccc12 (stereo not drawn)
[ask] Identify the entry with the larger Ki. Options: P and Q Your answer should be the label of the entry you select.
[reply] P
